# System: Klebsiella aerogenes DSM 30053
# ASSAY_NOTES: fold change of Putrescine concentration vs plate DMSO controls (fold change (ratio)); higher = more amine produced, active = hit call of the paper (significant change in both replicates, either direction)
# COND: incubation time: 27 h, anaerobic, 37 °C
Structures can show the parent of a compound that is named as a salt.
Recorded measurements of fold change of Putrescine concentration, one per entry
# print the numeric value only

Previously resolved entries follow.
- Cn1c(NCCN(CCO)CCCc2ccc([N+](=O)[O-])cc2)cc(=O)n(C)c1=O [Nifekalant] (20 µM): 1.02
- CCCCC1(COC(=O)CCC(=O)O)C(=O)N(c2ccccc2)N(c2ccccc2)C1=O [Suxibuzone] (20 µM): 0.987
- c1ccc2c(CC3=NCCN3)cccc2c1 [Naphazoline hydrochloride] (20 µM): 1
- CN(C)CCCN1c2ccccc2[S+]([O-])c2ccc(Cl)cc21 (configuration not stated) [Chlorpromazine Sulfoxide] (20 µM): 0.996
- Nc1ccccc1S(N)(=O)=O [o-Sulfanilamide] (20 µM): 1.01

Give fold change of Putrescine concentration for OCc1cc(C(O)CNCCCCCCOCCCCc2ccccc2)ccc1O (configuration not stated) [Salmeterol] (20 µM) 0.975

Give fold change of Putrescine concentration for Cn1ccnc1S [Methimazole] (20 µM) 1

Give fold change of Putrescine concentration for CC(C)CN(C[C@@H](O)[C@H](Cc1ccccc1)NC(=O)O[C@H]1CO[C@H]2OCC[C@H]21)S(=O)(=O)c1ccc(N)cc1 [Darunavir] (20 µM) 0.998

Give fold change of Putrescine concentration for O=C1c2ccccc2C(=O)C1c1ccccc1 [Phenindione] (20 µM) 1

Give fold change of Putrescine concentration for CC(C(O)c1ccc(O)cc1)N1CCC(Cc2ccccc2)CC1 (configuration not stated) [Ifenprodil tartrate] (20 µM) 0.973

Where these numbers come from: the supplement of paper PMC12494721
